- Target Entity: UniProtKB P0DMS8
- Sequence (P0DMS8 whole entry): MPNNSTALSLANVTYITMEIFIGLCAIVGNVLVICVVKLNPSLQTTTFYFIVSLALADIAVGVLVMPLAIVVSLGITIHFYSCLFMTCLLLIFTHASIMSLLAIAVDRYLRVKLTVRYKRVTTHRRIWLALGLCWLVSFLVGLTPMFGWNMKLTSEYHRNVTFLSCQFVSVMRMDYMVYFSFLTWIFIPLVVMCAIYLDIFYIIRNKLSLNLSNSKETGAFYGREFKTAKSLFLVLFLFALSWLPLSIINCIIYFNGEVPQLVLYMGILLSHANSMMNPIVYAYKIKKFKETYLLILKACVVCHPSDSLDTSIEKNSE
- Test Details: Adenosine receptor activity assay (Table 1), A3 cAMP
- Format: biochemical
pIC50: −log10 of the molar value.
Each entry below carries its reported pIC50.

Solved cases (3 shown):
{"Compound": "Cc1cc2nc(N[C@@H](C)c3cncc(F)c3)nc(C(=O)N3CC(CC(=O)OC(C)(C)C)C3)c2s1 [Example Z580]", "Measured Endpoint": "pIC50", "Assay Value": "6.30 to 7.00"}
{"Compound": "Cc1cc2nc(N[C@@H](C)c3cncc(F)c3)nc(C(=O)N3CC[C@@H](N)C3)c2s1 [Example Z413]", "Measured Endpoint": "pIC50", "Assay Value": "< 6.30"}
{"Compound": "C[C@H](Nc1nc(C(=O)N2CC(CC(=O)NC(C)(C)C)C2)c2sccc2n1)c1cncc(F)c1 [Example Z571]", "Measured Endpoint": "pIC50", "Assay Value": "< 6.30"}

// next item, pIC50 requested
Q: Using the record for C[C@H](Nc1nc(C(=O)N2CC(NC(=O)C3CC3)C2)c2sccc2n1)c1cncc(F)c1 [Example Z517] , state its measured pIC50.
A: < 6.30

----------
- Target Entity: adenosine A2B receptor (Homo sapiens (Human), UniProt P29275)
- Sequence (P29275 whole entry): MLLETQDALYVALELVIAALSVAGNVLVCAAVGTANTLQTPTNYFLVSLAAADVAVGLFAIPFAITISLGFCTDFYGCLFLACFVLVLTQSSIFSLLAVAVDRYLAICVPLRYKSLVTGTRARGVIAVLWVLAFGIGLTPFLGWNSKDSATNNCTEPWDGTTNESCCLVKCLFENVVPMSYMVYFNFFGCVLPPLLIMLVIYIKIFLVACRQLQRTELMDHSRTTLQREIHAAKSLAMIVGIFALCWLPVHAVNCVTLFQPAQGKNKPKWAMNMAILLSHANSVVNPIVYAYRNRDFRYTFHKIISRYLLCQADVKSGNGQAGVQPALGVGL
- Test Details: Adenosine receptor activity assay (Table 1), A2B activity
- Type: biochemical
- Condition Context: cAMP; read-out: Ave A2B cAMP IC50
Measured Endpoint: IC50

{"Chem Smiles": "C[C@H](Nc1nc(C(=O)N2CC(NC(=O)C3(C#N)CC3)C2)c2sccc2n1)c1cncc(F)c1", "Assay Value": "10 to 50 nM"}
{"Chem Smiles": "CCC(CC)NC(=O)NC1CN(C(=O)c2nc(N[C@@H](C)c3cncc(F)c3)nc3ccsc23)C1", "Assay Value": "10 to 50 nM"}
{"Chem Smiles": "C[C@H](Nc1nc(C(=O)N2CC(NC(=O)C3CCOCC3)C2)c2sccc2n1)c1cncc(F)c1", "Assay Value": "10 to 50 nM"}
{"Chem Smiles": "COc1cccc(C(=O)NC2CN(C(=O)c3nc(N[C@@H](C)c4cncc(F)c4)nc4ccsc34)C2)c1", "Assay Value": "10 to 50 nM"}
{"Chem Smiles": "Cc1cccc(C(=O)NC2CN(C(=O)c3nc(N[C@@H](C)c4cncc(F)c4)nc4ccsc34)C2)c1", "Assay Value": "10 to 50 nM"}
{"Chem Smiles": "C[C@H](Nc1nc(C(=O)N2CC(NC(=O)NC(C)(C)C)C2)c2sccc2n1)c1cncc(F)c1", "Assay Value": "< 10 nM"}
{"Chem Smiles": "C[C@H](Nc1nc(C(=O)N2CC(NC(=O)C3(C)CCC3)C2)c2sccc2n1)c1cncc(F)c1", "Assay Value": "10 to 50 nM"}
{"Chem Smiles": "C[C@H](Nc1nc(C(=O)N2CC(NC(=O)Nc3ccccc3)C2)c2sccc2n1)c1cncc(F)c1", "Assay Value": "< 10 nM"}
{"Chem Smiles": "C[C@H](Nc1nc(C(=O)N2CC(NC(=O)c3ccc(-c4ccccc4)cc3)C2)c2sccc2n1)c1cncc(F)c1", "Assay Value": "50 to 100 nM"}
{"Chem Smiles": "C[C@H](Nc1nc(C(=O)N2CC(NC(=O)c3ccc(C(F)(F)F)o3)C2)c2sccc2n1)c1cncc(F)c1", "Assay Value": "10 to 50 nM"}

Q: Using the record for C[C@H](Nc1nc(C(=O)N2CC(NC(=O)c3cccnc3)C2)c2sccc2n1)c1cncc(F)c1 , state its measured IC50.
A: 10 to 50 nM

Q: Using the record for C[C@H](Nc1nc(C(=O)N2CC(NC(=O)c3ccoc3)C2)c2sccc2n1)c1cncc(F)c1 , state its measured IC50.
A: < 10 nM

Q: Using the record for C[C@H](Nc1nc(C(=O)N2CC(NC(=O)c3ccccc3)C2)c2sccc2n1)c1cncc(F)c1 , state its measured IC50.
A: 10 to 50 nM

Q: Using the record for C[C@H](Nc1nc(C(=O)N2CC(NC(=O)C3CCCC3)C2)c2sccc2n1)c1cncc(F)c1 , state its measured IC50.
A: < 10 nM

Q: Using the record for C[C@H](Nc1nc(C(=O)N2CC(NC(=O)c3ccncc3)C2)c2sccc2n1)c1cncc(F)c1 , state its measured IC50.
A: 10 to 50 nM

Q: Using the record for Cc1cc(C(=O)NC2CN(C(=O)c3nc(N[C@@H](C)c4cncc(F)c4)nc4ccsc34)C2)c(C)o1 , state its measured IC50.
A: 10 to 50 nM

Q: Using the record for C[C@H](Nc1nc(C(=O)N2CC(NC(=O)C3CC(C)(C)C3)C2)c2sccc2n1)c1cncc(F)c1 , state its measured IC50.
A: 10 to 50 nM
